I'd be grateful if you could share measured pIC50 for these entries.
Biological target: Full-length, GST-tagged, human CaMKIIδ (Homo sapiens)
Construct: Full-Length, Glutathione-S-Transferase(GST)-Tagged, Human CaMKIIδ was purchased from Carna Biosciences; purchased Carna Biosciences 02-111
Assay: CaMKIIδ binding assay (TR-FRET with BODIPY-labeled probe ligand)
Details: Table 2; CaMKIIδ binding assay, activity given as class A/B/C
pIC50: −log10 of the molar value.

# example entries with known answers
1) C[C@@H](Cn1cnnn1)Oc1cc(-c2cnc(Nc3cn([C@H]4CC[C@H](N5CCOCC5)CC4)nc3OCC(F)(F)F)nc2)ccc1Cl [Example 772] ... > 8.00
2) C[C@@H](Cn1cnnn1)Oc1cc(-c2cnc(Nc3cn([C@H]4CC[C@@H](N5CCOCC5)CC4)nc3OCC(F)(F)F)nc2)ccc1F [Example 814] ... 7.00 to 8.00
3) C[C@@H](Cn1cnnn1)Oc1cc(-c2cnc(Nc3cn(CC(F)F)nc3OCC(F)(F)F)nc2)ccc1C#N [Example 767] ... > 8.00
4) C[C@@H](Cn1cnnn1)Oc1cc(-c2cnc(Nc3cn(-c4ccc(=O)[nH]c4)nc3C(F)(F)F)nc2)ccc1Cl [Example 868] ... 7.00 to 8.00
5) CC(C)c1nn([C@H]2CC[C@@H](N3CCOCC3)CC2)cc1Nc1ncc(-c2ccc(Cl)c(O[C@@H](C)Cn3cnnn3)c2)cn1 [Example 842] ... > 8.00

Attention now shifts to the item below.
Notebook: C[C@@H](Cn1cnnn1)Oc1cc(-c2cnc(Nc3cn(CC4(O)CCC4)nc3OCC(F)(F)F)nc2)ccc1Cl [Example 853] , pIC50 read as > 8.00

###

Target: Human full-length CaMKIIδ (Homo sapiens)
Construct: Human full-length CaMKIIδ (Cat #02-111) was obtained from Carna Biosciences; GST; purchased Carna Biosciences 02-111
Assay: Human CaMKII enzyme inhibition assay (radiometric kinase assay)
Format: biochemical
Details: 3 μM compound; 500 nM ATP; 0.5 nM CaMKIIδ; read-out: CaMKIIδ inhibitory activity (%) at 3 μM
measurement_kind: inhibition at 3 µM (%)
One number for each entry, in %.

1. COc1cc(C(=O)N2CCOCC2)ccc1Nc1ncc(-c2ccc(C#N)c(O[C@@H](C)Cn3cnnn3)c2)cn1 ... 98
2. COc1ccc(N2CCC(N3CCOCC3)CC2)cc1Nc1ncc(-c2ccc(Cl)c(O[C@@H](C)Cn3cnnn3)c2)cn1 ... 100
3. C[C@@H](O)Cn1cc(Nc2ncc(-c3ccc(C#N)c(O[C@@H](C)Cn4cncn4)c3)cn2)cn1 ... 98

Working through the 2 compounds below one at a time, give inhibition at 3 µM for each.
1. COc1cc(N2CCC(N3CCOCC3)CC2)ncc1Nc1ncc(-c2ccc(C#N)c(O[C@@H](C)Cn3cnnn3)c2)cn1
2. Cc1nn(C(C)C)cc1Nc1ncc(-c2ccc(C#N)c(O[C@@H](C)Cn3cncn3)c2)cn1

[99, 93]

###

Provide the recorded IC50 for the entries that follow.
Biological target: Full-length, GST-tagged, human CaMKIIδ (Homo sapiens, UniProt Q13557)
Construct: Full-Length, Glutathione-S-Transferase(GST)-Tagged, Human CaMKIIδ was purchased from Carna Biosciences; purchased Carna Biosciences 02-111
Sequence (Q13557 1-478 isoform Q13557-12): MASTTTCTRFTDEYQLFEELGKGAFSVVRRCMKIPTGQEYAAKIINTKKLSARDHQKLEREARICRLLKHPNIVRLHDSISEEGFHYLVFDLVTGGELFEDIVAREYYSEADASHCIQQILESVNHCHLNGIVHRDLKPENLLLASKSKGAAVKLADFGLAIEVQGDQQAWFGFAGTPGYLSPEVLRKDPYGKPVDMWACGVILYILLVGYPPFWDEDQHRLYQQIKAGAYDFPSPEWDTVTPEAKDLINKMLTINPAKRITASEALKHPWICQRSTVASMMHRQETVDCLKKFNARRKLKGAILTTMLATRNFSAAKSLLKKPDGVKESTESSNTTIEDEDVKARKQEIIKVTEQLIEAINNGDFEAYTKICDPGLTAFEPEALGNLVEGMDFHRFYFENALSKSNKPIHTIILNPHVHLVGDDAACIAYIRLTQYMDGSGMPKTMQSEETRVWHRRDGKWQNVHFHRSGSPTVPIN
Assay: CaMKIIδ binding assay (TR-FRET with BODIPY-labeled probe ligand)
Conditions: Table 2; CaMKIIδ binding assay, activity given as class A/B/C

1. Cc1noc(C)c1Cn1cc(Nc2ncc(-c3ccc(Cl)c(O[C@@H](C)Cn4cnnn4)c3)cn2)c(C(F)(F)F)n1 [Example 734] ... 0.01 to 0.1 µM
2. C[C@@H](Cn1cnnn1)Oc1cc(-c2cnc(Nc3cn([C@H]4CC[C@@H](N5CCOCC5)CC4)nc3OC3COC3)nc2)ccc1Cl [Example 820] ... < 0.01 µM

Shift focus to the following entry.
Kindly note the recorded IC50 for C[C@@H](Cn1cccn1)Oc1cc(-c2cnc(Nc3cn(C4CCN(C5CCOCC5)CC4)nc3OCC(F)(F)F)nc2)ccc1C#N [Example 782] , which is < 0.01 µM

###

Molecular target: Full-length, GST-tagged, human CaMKIIδ (Homo sapiens)
Construct: Full-Length, Glutathione-S-Transferase(GST)-Tagged, Human CaMKIIδ was purchased from Carna Biosciences; purchased Carna Biosciences 02-111
Test: CaMKIIδ binding assay (TR-FRET with BODIPY-labeled probe ligand)
Conditions: Table 2; activity class for CaMKIIδ
Kindly state IC50 for each of the entries shown.

1. CC(C#N)n1cc(Nc2ncc(-c3ccc(Cl)c(O[C@@H](C)Cn4cnnn4)c3)cn2)c(C(F)(F)F)n1 (stereo partly shown) ... 10 to 100 nM

Need IC50 for each of these compounds.
1. COc1cc(N2CCN(CC3COC3)CC2)cnc1Nc1ncc(-c2ccc(Cl)c(O[C@@H](C)Cn3cnnn3)c2)cn1
2. C[C@@H](Cn1cnnn1)Oc1cc(-c2cnc(Nc3cn([C@@H]4C[C@H]5CC[C@@H](C4)N5)nc3C(F)(F)F)nc2)ccc1Cl
3. COc1cc2c(cc1Nc1ncc(-c3ccc(Cl)c(O[C@@H](C)Cn4cnnn4)c3)cn1)N(C(=O)C(F)(F)F)CCC2
4. CCn1cc(Nc2ncc(-c3ccc(Cl)c(O[C@@H](C)Cn4cnnn4)c3)cn2)c(C2CC2)n1

1: 10 to 100 nM; 2: < 10 nM; 3: ≥ 100 nM; 4: 10 to 100 nM

Provide reported IC50 for each item, in the same order as listed.
1. C[C@@H](Cn1cnnn1)Oc1cc(-c2cnc(Nc3cn([C@@H]4Cc5ccccc5[C@@H]4O)nc3C(F)(F)F)nc2)ccc1Cl
2. COc1cc2c(cc1Nc1ncc(-c3ccc(C#N)c(O[C@@H](C)Cn4cnnn4)c3)cn1)NCCC2

["10 to 100 nM", "< 10 nM"]

###

Molecular target: Full-length, GST-tagged, human CaMKIIδ (Homo sapiens, UniProt Q13557)
Construct: Full-Length, Glutathione-S-Transferase(GST)-Tagged, Human CaMKIIδ was purchased from Carna Biosciences; purchased Carna Biosciences 02-111
Experiment: CaMKIIδ binding assay (TR-FRET with BODIPY-labeled probe ligand)
Conditions: CaMKIIδ binding assay, results of Table 2
measurement_kind: IC50

Below: 3 compounds and their reported IC50.
1) COCC(C)N1CCC(n2cc(Nc3ncc(-c4ccc(Cl)c(O[C@@H](C)Cn5cnnn5)c4)cn3)c(C(F)(F)F)n2)CC1 (stereo partly shown) ... < 10 nM
2) C[C@@H](Cn1cnnn1)Oc1cc(-c2cnc(Nc3cn(C4CCN(CC(F)F)CC4)nc3C(F)(F)F)nc2)ccc1Cl ... 10 to 100 nM
3) COC1CCC(N2CCC(n3cc(Nc4ncc(-c5ccc(Cl)c(OC(C)Cn6cnnn6)c5)cn4)c(C(F)(F)F)n3)CC2)CC1 (single isomer, unassigned; more polar) [Example 556] ... < 10 nM

Consider the following items and state reported IC50 for each.
1. COc1cc2c(cc1Nc1ncc(-c3ccc(Cl)c(O[C@@H](C)Cn4cnnn4)c3)cn1)CCN(CCO)C2
2. COc1cc(C2=CCN(C3COC3)CC2)c(C)cc1Nc1ncc(-c2ccc(C#N)c(O[C@@H](C)Cn3cnnn3)c2)cn1
3. COc1cc2c(cc1Nc1ncc(-c3ccc(Cl)c(O[C@@H](C)Cn4cnnn4)c3)cn1)NCC2

< 10 nM
< 10 nM
10 to 100 nM

Batch of 4 compounds: report IC50 for each.
1. COc1cc(C)c(C(=O)N2CCOCC2)cc1Nc1ncc(-c2ccc(Cl)c(O[C@@H](C)Cn3cnnn3)c2)cn1
2. COc1cnc(C2CCOCC2)cc1Nc1ncc(-c2ccc(Cl)c(O[C@@H](C)Cn3cnnn3)c2)cn1
3. COc1ccc(C(=O)N2CCN(C)CC2)cc1Nc1ncc(-c2ccc(Cl)c(O[C@@H](C)Cn3cnnn3)c2)cn1
4. C[C@@H](Cn1cnnn1)Oc1cc(-c2cnc(Nc3cn(C4CCN(C5CCS(=O)(=O)CC5)CC4)nc3C(F)(F)F)nc2)ccc1Cl

["< 10 nM", "10 to 100 nM", "< 10 nM", "< 10 nM"]

Batch lookup, IC50 per entry.
1. C[C@@H](Cn1cnnn1)Oc1cc(-c2cnc(Nc3cc(N4CCC(N5CCOCC5)CC4)ccc3F)nc2)ccc1Cl
2. C[C@@H](Cn1cnnn1)Oc1cc(-c2cnc(Nc3cn(C4CCN(C)CC4)nc3C(F)(F)F)nc2)ccc1Cl
3. C[C@@H](Cn1cnnn1)Oc1cc(-c2cnc(Nc3cn(CC4CCN(C(=O)OC(C)(C)C)C4)nc3C(F)(F)F)nc2)ccc1Cl (stereo partly shown)

< 10 nM
< 10 nM
≥ 100 nM

###

Field: IC50. Provide a value for each of the compounds that follow.
Molecular target: Full-length, GST-tagged, human CaMKIIδ (Homo sapiens, UniProt Q13557)
Construct: Full-Length, Glutathione-S-Transferase(GST)-Tagged, Human CaMKIIδ was purchased from Carna Biosciences; purchased Carna Biosciences 02-111
Experiment: CaMKIIδ binding assay (TR-FRET with BODIPY-labeled probe ligand)
Conditions: CaMKIIδ binding assay, results of Table 2

Previously resolved entries follow.
1) COc1cc2c(cc1Nc1ncc(-c3ccc(Cl)c(O[C@@H](C)Cn4cnnn4)c3)cn1)N(C(C)=O)CC2 [Example 466] ... 10 to 100 nM
2) COc1cc2c(cc1Nc1ncc(-c3ccc(Cl)c(O[C@@H](C)Cn4cnnn4)c3)cn1)CNCC2 [Example 461] ... < 10 nM
3) COc1cc2c(cc1Nc1ncc(-c3ccc(C#N)c(O[C@@H](C)Cn4cncn4)c3)cn1)C(=O)N(C1CCC1)C2 [Example 443] ... 10 to 100 nM
4) C[C@@H](Cn1cnnn1)Oc1cc(-c2cnc(Nc3cn(CC4CCNC4)nc3C(F)(F)F)nc2)ccc1Cl (stereo partly drawn) [Example 572] ... < 10 nM
5) Cc1cnc(N2CCC(N3CCOCC3)CC2)cc1Nc1ncc(-c2ccc(Cl)c(O[C@@H](C)Cn3cnnn3)c2)cn1 [Example 478] ... 10 to 100 nM

Below are some compounds; for each one, tell me its IC50.
1. COCC(=O)N1CCc2cc(Nc3ncc(-c4ccc(Cl)c(O[C@@H](C)Cn5cnnn5)c4)cn3)c(OC)cc2C1 [Example 469]
2. COc1cc(C2CCCN(C3COC3)C2)ccc1Nc1ncc(-c2ccc(Cl)c(O[C@@H](C)Cn3cnnn3)c2)cn1 (stereo partly drawn) [Example 494]
3. C[C@@H](Cn1cnnn1)Oc1cc(-c2cnc(Nc3cn(C4CCN(Cc5cccnc5)CC4)nc3C(F)(F)F)nc2)ccc1Cl [Example 563]
4. COc1ccc(CN2CCOCC2)cc1Nc1ncc(-c2ccc(Cl)c(O[C@@H](C)Cn3cnnn3)c2)cn1 [Example 448]

10 to 100 nM
< 10 nM
10 to 100 nM
10 to 100 nM
